FYI, the data here is from PubChem BioAssay (NCI).

Readings of growth inhibition for the listed compounds
assay: NCI Yeast Anticancer Drug Screen. Data for the mec2-1 strain (AID 157); conditions: S. cerevisiae mec2-1 strain, at 50.0 µM, stronger effect = higher value
This is part of a sample that, as a whole, favours compounds with a hit. Of some 79,000 tested, about 15% had one in any assay. Active and inactive are the calls of the source. Rule as the data show it: active = growth inhibition above about 70%; inactive = the rest.
result_type: growth inhibition

                                    compound     observed_value
 0       COc1ccc2c(c1)C1(C=N2)CCN(C(C)=O)CC1  -17.1% (inactive)
 1                  COC(=O)/C=C/c1ccc(Cl)cc1   -1.8% (inactive)
 2  CCCC[N+]1(C)CCC(OC(=O)C(O)(c2ccccc2)C2CCCC2)C1 (stereo unspecified)   5.25% (inactive)
 3  O=C(C[n+]1ccccc1)C1CCCC2CC3CCCCC3CC21 (stereo unspecified)   18.3% (inactive)
 4  N.N.N.N.O=C([O-])CCl.O=C([O-])CCl.[Co+3].[O-][Cl+3]([O-])([O-])[O-]  -0.45% (inactive)
 5  COc1ccc2c(c1OC(C)=O)-c1cc(OC(C)=O)cc3c1C(C2)N(C(=O)CN(CCCl)CCCl)CC3 (stereo unspecified)     -6% (inactive)
 6  CN1CCC(O)(c2ccccc2)C(C(O)c2ccccc2)C1 (stereo unspecified)  -21.7% (inactive)
 7  CCOC(=O)C(C[Si](C)(C)C)P(=O)(OCC)OCC (stereo unspecified)  -21.9% (inactive)
 8                            O=C1CN2CCC1CC2    -47% (inactive)
 9  CC(=O)C1=C(O)C2C3c4c[nH]c5cccc(c45)CC3C(C)(C)N2C1=O (stereo unspecified)    -11% (inactive)
10  CC(=O)OC(C[N+](=O)[O-])C(Cl)(Cl)Cl (stereo unspecified)   3.25% (inactive)

###

assay: NCI Yeast Anticancer Drug Screen. Data for the cln2 rad14 strain (AID 165);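 also: 0% = growth equal to vehicle treated cultures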; conditions: S. cerevisiae cln2 rad14 strain, at 50.0 µM, stronger effect = higher value
About 79,000 compounds went through this panel and 15% of them were active in at least one assay; those are over-represented in the sample as a whole. Active and inactive are the calls of the source. No stated cut-off is given here; in the data, active means growth inhibition above about 70%; inactive means the rest.

compound	growth inhibition
COC1=CC2CCC3C(CCC4(C)C(OC(C)=O)CCC34)C2(C)CC1 (stereo not given)	4.1% (inactive)
CCOC(=O)C1C(C=C(C)C)C1(C)C (stereo not given)	-10.8% (inactive)
Nc1ccc(CCc2ccc(S(=O)(=O)F)cc2)cc1	92.8% (active)
CCC1(C(C)C=C(C)C)C(=O)NC(=O)NC1=O (stereo not given)	1.45% (inactive)
CCC(OC(=O)C1C(C=C(C)C)C1(C)C)c1cc2c(cc1Cl)OCO2 (stereo not given)	-13.3% (inactive)
C1CCC2[N-]CCCC2C1.C1CCC2[N-]CCCC2C1.[Cl][Pt+2][Cl] (stereo not given)	22.9% (inactive)
CP1(=S)CCC2=C1CCc1cc(O)ccc12 (stereo not given)	-29.8% (inactive)
Cc1nc2ccc(Br)cc2c(=O)n1-c1nnc(C(C)(C)C)s1	-5.75% (inactive)
O=c1[nH]cc([N+](=O)[O-])cc1[N+](=O)[O-]	22.7% (inactive)
S=C(N/N=C\c1cccc(I)c1)NC1CN2CCC1CC2 (stereo not given)	14.8% (inactive)
CC1(C)OC2COC(CN=[N+]=[N-])C2O1 (stereo not given)	-0.8% (inactive)
Cc1ccccc1-n1c(/C=C\c2ccccn2)nc2ccccc2c1=O	35.6% (inactive)
CC1NC1(c1ccccc1)n1ccnc1 (stereo not given)	-14.5% (inactive)
O.[Cr+3].[NH2-].[NH2-].[NH2-].[NH2-].[NH2-].[O-][Cl+3]([O-])([O-])O	9.75% (inactive)
Cc1ccc(C(=O)C(C)N)cc1C (stereo not given)	15.2% (inactive)
[NH-]C(CCC(N)=O)C(=O)O.[NH-]C(CCC(N)=O)C(=O)O.[Pd+2] (stereo not given)	-71.6% (inactive)
O=[N+]([O-])c1ccc(/C=C/c2ccc(S(=O)(=O)F)cc2Cl)c(Cl)c1	-34.3% (inactive)
CSP(N)(=O)OC(C)C (stereo not given)	-23.6% (inactive)
CSCCC(NC(=O)C(Cc1ccccc1)NC(=O)CNC(=O)CNC(=O)C(N)Cc1ccc(O)cc1)C(=O)O (stereo not given)	26.2% (inactive)
COc1cccc2c1C(=O)c1c(O)c3c(c(O)c1C2=O)C[C@@](O)(C(=O)CO)C[C@@H]3OC1CC(N2CCOCC2C#N)C(O)C(C)O1 (stereo not given in full)	89.8% (active)
COCC1OC2OC3C(COC)OC(OC4C(COC)OC(OC5C(COC)OC(OC6C(COC)OC(OC7C(COC)OC(OC8C(COC)OC(OC1C(O)C2O)C(O)C8O)C(O)C7O)C(O)C6O)C(O)C5O)C(O)C4O)C(O)C3O (stereo not given) (tested in a mixture with another compound)	20.1% (inactive)
CC(C)=C=CP(=O)(O)c1ccccc1	31.9% (inactive)
CC1N=C(c2ccccc2)C2(c3ccccc3)C(C)N12 (stereo not given)	-29.2% (inactive)
O=C(Nc1c(O)[nH]c(=S)[nH]c1=O)c1ccco1	-4.35% (inactive)
N#Cc1ccc(Cl)cc1	-2.6% (inactive)
[I][Hg][CH]1CCC2CCCC1O2 (stereo not given)	99% (active)
Cc1ccc(NC(=O)CCc2ccc(N3C(N)=NC(N)=NC3(C)C)cc2Cl)cc1S(=O)(=O)F	-5.25% (inactive)
CCOC(=O)C1C(c2ccco2)C2(C#N)C(=N)OC1(C)C2(C#N)C#N (stereo not given)	-0.9% (inactive)
COC1OOC(OC)c2ccccc2-c2ccccc21 (stereo not given)	-14.1% (inactive)
CCCCS(=O)CCC(N)P(=O)(O)O (stereo not given)	-9.9% (inactive)
O=C(c1ccccc1)N1CC(Cl)CN(C(=O)c2ccccc2)CC(Cl)C1 (stereo not given)	14.8% (inactive)
O=[As](O)(O)c1cccc(Cl)c1	1.85% (inactive)
CCC1CC[Si](C)(C)CC12C(=O)NC(=O)NC2=O (stereo not given)	1.65% (inactive)
CC1(C)CCC[N+]1(C)CCC(C(N)=O)(c1ccccc1)c1ccccc1 (stereo not given)	4.45% (inactive)
CCCCNC(=O)C(Cl)Cl	2.4% (inactive)
CC(C)=CCC/C(C)=N\N=C(N)N	-20.5% (inactive)
NC(C/C=C/P(=O)(O)O)C(=O)O (stereo not given)	13.2% (inactive)
C=C1[C@@H](C)[C@H]2[C@H](Cc3ccccc3)NC(=O)[C@]23OC(=O)/C=C/[C@H](O)CCC[C@@H](C)C/C=C/[C@H]3[C@@H]1O	39% (inactive)
CC1OC(OC2CCC3(C=O)C4CCC5(C)C(C6=CC(=O)OC6)CCC5(O)C4CCC3(O)C2)C(O)C(O)C1O (stereo not given)	13.5% (inactive)
Cc1ccc(N2CCNCC2C)cc1 (stereo not given)	8.95% (inactive)
Nc1nc(N)c2[nH]c(N)nc2n1	-14.4% (inactive)
Cc1ccc(NC(=O)C(=O)C2C(=O)NC(=O)NC2=O)c(C)c1	11.2% (inactive)
Nc1cc(S(=O)(=O)O)cc2cc(S(=O)(=O)O)c(N=Nc3ccc([As]=O)cc3)c(O)c12 (stereo not given)	-4.55% (inactive)
OCCN1CCN(c2cccc(Cl)c2)CC1	-11.1% (inactive)
[CH3][Sn]1([CH3])[O]C(=O)C(=O)[O]1	-26.8% (inactive)

###

assay: NCI Yeast Anticancer Drug Screen. Data for the mlh1 rad18 strain (AID 175); details: S. cerevisiae mlh1 rad18 strain growth inhibition; at 50.0 µM; stronger effect = higher value
This is part of a sample that, as a whole, favours compounds with a hit. Of some 79,000 tested, about 15% had one in any assay. The source made the active and inactive calls. No stated cut-off is given here; in the data, active means growth inhibition above about 70%; inactive means the rest.
Readings of growth inhibition for the listed molecules
result_type: growth inhibition

>>> df
                                    molecule        result_type     observed_value
 0  CC1=C(C)CN(CCc2c[nH]c3ccccc23)C(C#N)C1 (configuration not stated)  growth inhibition   12.5% (inactive)
 1  CCC(C)OC(=O)Nc1cccc(OC(=O)NC)c1 (configuration not stated)  growth inhibition   -0.3% (inactive)
 2                      Nc1ccc(P(=O)(O)O)cc1  growth inhibition  -3.95% (inactive)
 3  O=C1C=CC2(C=C1)CCN=c1c(O)c3c(c(O)c12)=NC=N3  growth inhibition   -4.5% (inactive)
 4  CN1C2CCC1C(Br)C(=O)C2 (configuration not stated)  growth inhibition  -51.2% (inactive)
 5  C[n+]1ccccc1-c1ccc[n+](CCCCC[n+]2cccc(-c3cccc[n+]3C)c2)c1  growth inhibition   8.15% (inactive)
 6  COc1ccc(CC(N)c2nn[nH]n2)cc1 (configuration not stated)  growth inhibition  -1.75% (inactive)
 7           CCOc1ccc2ccccc2c1OP(=O)(OCC)OCC  growth inhibition   25.6% (inactive)
 8  NC(=O)c1cc([N+](=O)[O-])cc([N+](=O)[O-])c1N(CCCl)CCCl  growth inhibition  -14.6% (inactive)
 9    CN1C(=O)C(=CN(C)c2ccccc2)C(=O)N(C)C1=O  growth inhibition  -8.85% (inactive)
10                          O=c1cc(CCl)occ1O  growth inhibition   15.1% (inactive)
11   C1=C(c2ccccc2)CCN(C2(c3ccccc3)CCCCC2)C1  growth inhibition   9.35% (inactive)
